Molecular target: T1, FcγRIIB (form not stated) (UniProt P31994 43-217, limits assumed)
T1 construct: also called FcγRIIB (ELISA)
T1 sequence (looked up): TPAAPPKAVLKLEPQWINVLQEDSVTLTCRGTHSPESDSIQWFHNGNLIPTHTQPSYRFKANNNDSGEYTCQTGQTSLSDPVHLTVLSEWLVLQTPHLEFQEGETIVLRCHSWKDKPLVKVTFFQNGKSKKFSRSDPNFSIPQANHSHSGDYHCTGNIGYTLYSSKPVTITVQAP
Experiment: ELISA
// classify: if (fold increase vs WT < 6 x) Fulfilled else Not fulfilled

{"binder": "ch4-4-20 K317N, F423-deleted (antibody) EPKSCDKTHTCPPCPAPELLGGPSVFLFPPKPKDTLMISRTPEVTCVVVDVSHEDPEVKFNWYVDGVEVHNAKTKPREEQYNSTYRVVSVLTVLHQDWLNGNEYKCKVSNKALPAPIEKTISKAKGQPREPQVYTLPPSREEMTKNQVSLTCLVKGFYPSDIAVEWESNGQPENNYKTTPPVLDSDGSFFLYSKLTVDKSRWQQGNVSCSVMHEALHNHYTQKSLSLSPGK", "qualitativeLabel": "Not fulfilled"}
{"binder": "ch4-4-20 P244A, K326I, C367R, S375I, K447T (antibody) heavy: ASTKGPSVFPLAPSSKSTSGGTAALGCLVKDYFPEPVTVSWNSGALTSGVHTFPAVLQSSGLYSLSSVVTVPSSSLGTQTYICNVNHKPSNTKVDKKVEPKSCDKTHTCPPCPAPELLGGPSVFLFAPKPKDTLMISRTPEVTCVVVDVSHEDPEVKFNWYVDGVEVHNAKTKPREEQYNSTYRVVSVLTVLHQDWLNGKEYKCKVSNIALPAPIEKTISKAKGQPREPQVYTLPPSRDELTKNQVSLTRLVKGFYPIDIAVEWESNGQPENNYKTTPPVLDSDGSFFLYSKLTVDKSRWQQGNVFSCSVMHEALHNHYTQKSLSLSPGT", "qualitativeLabel": "Fulfilled"}
{"binder": "ch4-4-20 F275L, Q362H, N384K, P396L (antibody) heavy: ASTKGPSVFPLAPSSKSTSGGTAALGCLVKDYFPEPVTVSWNSGALTSGVHTFPAVLQSSGLYSLSSVVTVPSSSLGTQTYICNVNHKPSNTKVDKKVEPKSCDKTHTCPPCPAPELLGGPSVFLFPPKPKDTLMISRTPEVTCVVVDVSHEDPEVKLNWYVDGVEVHNAKTKPREEQYNSTYRVVSVLTVLHQDWLNGKEYKCKVSNKALPAPIEKTISKAKGQPREPQVYTLPPSRDELTKNHVSLTCLVKGFYPSDIAVEWESKGQPENNYKTTPLVLDSDGSFFLYSKLTVDKSRWQQGNVFSCSVMHEALHNHYTQKSLSLSPGK", "qualitativeLabel": "Fulfilled"}
{"binder": "ch4-4-20 N315I, V379M, T394M (antibody) heavy: ASTKGPSVFPLAPSSKSTSGGTAALGCLVKDYFPEPVTVSWNSGALTSGVHTFPAVLQSSGLYSLSSVVTVPSSSLGTQTYICNVNHKPSNTKVDKKVEPKSCDKTHTCPPCPAPELLGGPSVFLFPPKPKDTLMISRTPEVTCVVVDVSHEDPEVKFNWYVDGVEVHNAKTKPREEQYNSTYRVVSVLTVLHQDWLIGKEYKCKVSNKALPAPIEKTISKAKGQPREPQVYTLPPSRDELTKNQVSLTCLVKGFYPSDIAMEWESNGQPENNYKTMPPVLDSDGSFFLYSKLTVDKSRWQQGNVFSCSVMHEALHNHYTQKSLSLSPGK", "qualitativeLabel": "Not fulfilled"}
{"binder": "ch4-4-20 P244H, L358M, V379M, N384K, V397M (antibody) heavy: ASTKGPSVFPLAPSSKSTSGGTAALGCLVKDYFPEPVTVSWNSGALTSGVHTFPAVLQSSGLYSLSSVVTVPSSSLGTQTYICNVNHKPSNTKVDKKVEPKSCDKTHTCPPCPAPELLGGPSVFLFHPKPKDTLMISRTPEVTCVVVDVSHEDPEVKFNWYVDGVEVHNAKTKPREEQYNSTYRVVSVLTVLHQDWLNGKEYKCKVSNKALPAPIEKTISKAKGQPREPQVYTLPPSRDEMTKNQVSLTCLVKGFYPSDIAMEWESKGQPENNYKTTPPMLDSDGSFFLYSKLTVDKSRWQQGNVFSCSVMHEALHNHYTQKSLSLSPGK", "qualitativeLabel": "Fulfilled"}
{"binder": "ch4-4-20 K246R, S298N, I377F (antibody) heavy: ASTKGPSVFPLAPSSKSTSGGTAALGCLVKDYFPEPVTVSWNSGALTSGVHTFPAVLQSSGLYSLSSVVTVPSSSLGTQTYICNVNHKPSNTKVDKKVEPKSCDKTHTCPPCPAPELLGGPSVFLFPPRPKDTLMISRTPEVTCVVVDVSHEDPEVKFNWYVDGVEVHNAKTKPREEQYNNTYRVVSVLTVLHQDWLNGKEYKCKVSNKALPAPIEKTISKAKGQPREPQVYTLPPSRDELTKNQVSLTCLVKGFYPSDFAVEWESNGQPENNYKTTPPVLDSDGSFFLYSKLTVDKSRWQQGNVFSCSVMHEALHNHYTQKSLSLSPGK", "qualitativeLabel": "Fulfilled"}

The reported measurements were obtained from patent US20080112961A1.
